- Tested on: HCT-116
- Test: NCI tumour cell line growth inhibition, 48 h
Active and inactive are the calls of the source. No stated cut-off is given here; in the data, active = GI50 up to about 1.1 µM and inactive = higher.
Property name: GI50

- Cc1ccc(Sc2cc([N+](=O)[O-])cc(Sc3ccc(C)cc3)c2Sc2ccc(C)cc2)cc1: > 100 µM (inactive)
- O=c1[nH]c2ccc(CC(=S)N3CCOCC3)cc2s1: > 100 µM (inactive)
- CCc1ccc(/C(C)=N/NC(N)=S)cc1: > 100 µM (inactive)
- CCOc1ccccc1NC(=O)C(=O)CC(=O)c1sc(Nc2nnc(-c3ccc(Cl)c(Cl)c3)o2)nc1C: > 100 µM (inactive)
- Cc1cc(CN(Cc2ccccc2)Cc2nc3ccccc3[nH]2)c(O)c(CN(Cc2nc3ccccc3[nH]2)Cc2nc3ccccc3[nH]2)c1: 4.16 µM (inactive)
- COc1ccc(/C(=N/OCCCC(=O)O)c2cccs2)cc1: > 100 µM (inactive)
- CC1(C)OB(O)OC1(C)C: > 100 µM (inactive)
- CSc1[nH]nc(N)c1C(=O)Nc1ccc(Cl)cc1: 23.6 µM (inactive)
- C[C@@]12C[C@@H](c3ccccc3O1)N1Cc3ccccc3CSC1=N2: 49.7 µM (inactive)
- CC1SCc2nc3ccccc3n21 (stereo not drawn): > 100 µM (inactive)
- OC1CSc2nc3ccccc3n2C1 (stereo not drawn): > 100 µM (inactive)
- C[C@@]12c3c4ccc(C=O)c3Oc3ccc(C=O)c(c31)Oc1c(C=O)ccc(c12)O4: > 100 µM (inactive)
- CC(=O)OC12c3ccccc3C1CCCCCC21OCCCO1 (stereo not drawn): > 100 µM (inactive)
- CCCNC(C#N)c1ccc(OCCCCCCCCCCOc2ccc(C(C#N)NCCC)cc2)cc1 (stereo not drawn): 31.9 µM (inactive)
- CCOC(=O)C(=O)/C(=C/n1c(=S)[nH]c2ccc([N+](=O)[O-])cc21)C(=O)OCC: > 100 µM (inactive)
- CC(C)C1CN(C(=O)OCc2ccccc2)C2N1C(=O)C2(C)OCc1ccccc1 (stereo not drawn): 37.6 µM (inactive)
- O=C(O)c1ccccc1/C=C1/Cc2ccc3c(c2C1=O)CCC3: 30.7 µM (inactive)
- CN(C)CCOC(=O)c1ccc(N)cc1: 54.7 µM (inactive)
- COCCOC(C)C(=O)C(O)S(=O)(=O)O (stereo not drawn): > 100 µM (inactive)
- Cc1sc(N/N=C2\C(=O)Nc3ccccc32)nc1-c1ccccc1: 12.4 µM (inactive)
- CCOC(=O)c1ccc(C(=O)/C(C#N)=C2\CCCN2C)[nH]1: > 100 µM (inactive)
- O=S1(=O)c2ccccc2N(c2ccccc2)c2nnnn21: 26.4 µM (inactive)
- CC(=O)Nc1ccc(-c2nnc(SCC(=O)Nc3ccc([N+](=O)[O-])cc3)o2)cc1: 12.5 µM (inactive)
